target: Vascular endothelial growth factor receptor 2 (Homo sapiens); test: Inhibition of VEGFR2 phosphorylation in VEGF165-stimulated HUVEC at 100 uM treated for 1 hr before VEGF165 challenge measured after 5 mins by Western blot analysis; type: cell-based
Activity calls are given as the source filed them. The rule behind the calls is not given here. Where a SMILES comes first, the peptide text is derived from it. Bridges are numbered along the chain shown (N, C = ends).
Write down the outcome that applies. Available outcomes: T (active), F (inactive)

>  <compound>
CC(C)C[C@@H]1NC(=O)CNC(=O)[C@H](CCC(=O)O)NC(=O)[C@H](CCCCN)NC(=O)[C@H](Cc2ccc(O)cc2)NC(=O)[C@H](Cc2ccc(O)cc2)NC(=O)CC[C@@H](C(N)=O)NC(=O)[C@H](CCC(=O)O)NC1=O (YYKEGLEE-NH2; lactam N-8)

>  <answer-label>
T

$$$$
>  <compound>
CC(C)C[C@@H]1NC(=O)CNC(=O)[C@H](CCC(=O)O)NC(=O)[C@H](CC(=O)O)NC(=O)[C@H](Cc2ccc(O)cc2)NC(=O)[C@H](Cc2ccc(O)cc2)NC(=O)CC[C@@H](C(N)=O)NC(=O)[C@H](CCC(=O)O)NC1=O (YYDEGLEE-NH2; lactam N-8)

>  <answer-label>
T

$$$$
>  <compound>
CC(C)C[C@@H]1NC(=O)CNC(=O)[C@H](CCC(=O)O)NC(=O)[C@H](CC(=O)O)NC(=O)[C@H](Cc2ccc(O)cc2)NC(=O)[C@H](Cc2ccc(O)cc2)NC(=O)CC[C@@H](C(N)=O)NC(=O)[C@H](C)NC1=O (YYDEGLAE-NH2; lactam N-8)

>  <answer-label>
F

$$$$

Could you now look at the following compound, please?
query: Fill in: this test's call for CC(C)C[C@@H]1NC(=O)CNC(=O)[C@H](CCC(=O)O)NC(=O)[C@H](CC(=O)O)NC(=O)[C@H](C)NC(=O)[C@H](Cc2ccc(O)cc2)NC(=O)CC[C@@H](C(N)=O)NC(=O)[C@H](CCC(=O)O)NC1=O (YADEGLEE-NH2; lactam N-8) is ___
result: F
